From: patent US20040231558A1

test: Evaluation of moisture resistance (image-recorded paper at 40° C. and humidity 85%, visual observation)
Format: physicochemical
settings: image-recorded paper at 40° C. and humidity 85%, visually observed
property_measured: (B) moisture resistance

# count of solved cases: 6
{"compound": "Cc1c(N=Nc2cc(C(=O)O)ccc2C(=O)O)c(O)n(CCNc2nc(Cl)nc(NCCn3c(O)c(N=Nc4cc(C(=O)O)ccc4C(=O)O)c(C)c(C(N)=O)c3=O)n2)c(=O)c1C(N)=O [Compound 252]", "(B) moisture resistance": "⊚"}
{"compound": "CCc1c(N=Nc2cc(C(=O)O)ccc2C(=O)O)c(O)n(CCn2c(=O)c3cc4c(=O)n(CCn5c(O)c(N=Nc6cc(C(=O)O)ccc6C(=O)O)c(CC)c(C#N)c5=O)c(=O)c4cc3c2=O)c(=O)c1C#N [Compound 335]", "(B) moisture resistance": "⊚"}
{"compound": "Cc1c(N=Nc2cc(C(=O)O)ccc2C(=O)O)c(O)n(CCC(=O)O)c(=O)c1C#N [compound 78]", "(B) moisture resistance": "◯"}
{"compound": "N#Cc1c(C(F)(F)F)c(N=Nc2cc(C(=O)O)ccc2C(=O)O)c(O)n(CCNc2nc(NCCn3c(O)c(N=Nc4cc(C(=O)O)ccc4C(=O)O)c(C(F)(F)F)c(C#N)c3=O)nc(NCCn3c(O)c(N=Nc4cc(C(=O)O)ccc4C(=O)O)c(C(F)(F)F)c(C#N)c3=O)n2)c1=O [Compound 265]", "(B) moisture resistance": "⊚"}
{"compound": "CCCCc1c(N=Nc2cc(C(=O)O)ccc2C(=O)O)c(O)n(CCNc2nc(NCCn3c(O)c(N=Nc4cc(C(=O)O)ccc4C(=O)O)c(CCCC)c(C#N)c3=O)nc(NCCn3c(O)c(N=Nc4cc(C(=O)O)ccc4C(=O)O)c(CCCC)c(C#N)c3=O)n2)c(=O)c1C#N [Compound 271]", "(B) moisture resistance": "⊚"}
{"compound": "Cc1c(N=Nc2c(C(=O)O)cccc2C(=O)O)c(O)n(CCNc2nc(Cl)nc(NCCn3c(O)c(N=Nc4c(C(=O)O)cccc4C(=O)O)c(C)c(C#N)c3=O)n2)c(=O)c1C#N [Compound 256]", "(B) moisture resistance": "⊚"}

Q. GET /values?readout=(B) moisture resistance&item= Cc1c(N=Nc2cc(C(=O)O)ccc2C(=O)O)c(O)n(Cc2ccc(C(=O)O)c(C(=O)O)c2)c(=O)c1C#N [compound 92]
A. ⊚

Q. Next record, please: C[N+](C)(C)C.C[N+](C)(C)C.C[N+](C)(C)C.C[N+](C)(C)C.Cc1c(N=Nc2cc(C(=O)[O-])ccc2C(=O)[O-])c(O)n(CCNc2nc(Cl)nc(NCCn3c(O)c(N=Nc4cc(C(=O)[O-])ccc4C(=O)[O-])c(C)c(C#N)c3=O)n2)c(=O)c1C#N
A. ⊚

Q. Next record, please: Cc1c(C(=O)O)ccc(C(=O)O)c1N=Nc1c(C)c(C#N)c(=O)n(CC(O)CC(=O)O)c1O (stereo not shown) [compound 164]
A. ◯

Q. Next record, please: Cc1c(N=Nc2cccc(C(=O)O)c2C(=O)O)c(O)n(Cc2ccc(C(=O)O)cc2)c(=O)c1C#N [compound 58]
A. Δ

Q. Next record, please: Cc1c(N=Nc2cccc(C(=O)O)c2C(=O)O)c(O)n(C(=O)O)c(=O)c1C#N [compound 46]
A. ◯

Q. Next record, please: CCc1c(N=Nc2cc(C(=O)O)ccc2C(=O)O)c(O)n(CCNC(=O)c2ccc(C(=O)NCCn3c(O)c(N=Nc4cc(C(=O)O)ccc4C(=O)O)c(CC)c(C#N)c3=O)c(C(=O)NCCn3c(O)c(N=Nc4cc(C(=O)O)ccc4C(=O)O)c(CC)c(C#N)c3=O)c2)c(=O)c1C#N [Compound 308]
A. ⊚

Q. Next record, please: Cc1c(N=Nc2cc(C(=O)O)ccc2C(=O)O)c(O)n(CCCCCCNc2nc(Cl)nc(NCCn3c(O)c(N=Nc4cc(C(=O)O)ccc4C(=O)O)c(C)c(C#N)c3=O)n2)c(=O)c1C#N [Compound 249]
A. ⊚

Q. Next record, please: Cc1c(N=Nc2cccc(C(=O)O)c2C(=O)O)c(O)n(CCNc2nc(NCCn3c(O)c(N=Nc4cccc(C(=O)O)c4C(=O)O)c(C)c(C#N)c3=O)nc(NCCn3c(O)c(N=Nc4cccc(C(=O)O)c4C(=O)O)c(C)c(C#N)c3=O)n2)c(=O)c1C#N [Compound 268]
A. ⊚

Q. Next record, please: Cc1c(N=Nc2cc(C(=O)[O-])ccc2C(=O)[O-])c(O)n(CCNc2nc(Cl)nc(NCCn3c(O)c(N=Nc4cc(C(=O)[O-])ccc4C(=O)[O-])c(C)c(C#N)c3=O)n2)c(=O)c1C#N.[K+].[K+].[K+].[K+] [potassium salt of compound No. 245]
A. ⊚

Q. Next record, please: Cc1c(N=Nc2cccc(C(=O)O)c2C(=O)O)c(O)n(CCCNc2nc(Cl)nc(NCCCn3c(O)c(N=Nc4cccc(C(=O)O)c4C(=O)O)c(C)c(C#N)c3=O)n2)c(=O)c1C#N [Compound 260]
A. ⊚

Q. Next record, please: N#Cc1c(-c2ccccc2)c(N=Nc2cc(C(=O)O)ccc2C(=O)O)c(O)n(CCCCCCNC(=O)c2cc(C(=O)O)c(C(=O)NCCCCCCn3c(O)c(N=Nc4cc(C(=O)O)ccc4C(=O)O)c(-c4ccccc4)c(C#N)c3=O)cc2C(=O)O)c1=O [Compound 287]
A. ⊚

Q. Next record, please: CC(C)(C)c1c(N=Nc2cc(C(=O)O)ccc2C(=O)O)c(O)n(CCn2c(=O)c3cc4c(=O)n(CCn5c(O)c(N=Nc6cc(C(=O)O)ccc6C(=O)O)c(C(C)(C)C)c(C#N)c5=O)c(=O)c4cc3c2=O)c(=O)c1C#N [Compound 336]
A. ⊚

Q. Next record, please: Cc1c(N=Nc2cc(C(=O)O)ccc2C(=O)O)c(O)n(CCCNc2nc(NCCn3c(O)c(N=Nc4cc(C(=O)O)ccc4C(=O)O)c(C)c(C#N)c3=O)nc(NCCn3c(O)c(N=Nc4c(C(=O)O)cccc4C(=O)O)c(C)c(C#N)c3=O)n2)c(=O)c1C#N [Compound 270]
A. ⊚
